Tested on: spontaneously hypertensive rats
protocol: Antihypertensive activity: systolic blood pressure measured indirectly on conscious SHR after peroral dosing
Type: in vivo, rat
measurement.setup: SHR (male, 13 months, 2 per sample), before 35 mg/kg peroral single dose
measurement.kind: Systolic Blood Pressure, Pretreatment (mm Hg)
One number for each entry, in mm Hg.

q: Consider the compound C[C@H](NP(=O)(OCc1ccccc1)OCc1ccccc1)C(=O)N1CCC[C@H]1C(=O)N1CCC[C@H]1C(=O)[O-].[K+] [Example 32] and give its measured Systolic Blood Pressure, Pretreatment.
a: 185

q: Systolic Blood Pressure, Pretreatment for C[C@H](NP(=O)(OCc1ccccc1)OCc1ccccc1)C(=O)N1CCC[C@H]1C(=O)O.NC(N)=NCCC[C@H](N)C(=O)O [*, reference compound] ?
a: 198

q: Entry C[C@H](NP(=O)(CCc1ccccc1)OCc1ccccc1)C(=O)N1CCC[C@H]1C(=O)N1CCC[C@H]1C(=O)O.NC(N)=NCCC[C@H](N)C(=O)O (some centres unmarked) [Example 27] has what Systolic Blood Pressure, Pretreatment?
a: 180

Would you mind listing Systolic Blood Pressure, Pretreatment for each of the following compounds?
1. CSCC[C@H](NP(=O)(CCc1ccccc1)OCc1ccccc1)C(=O)N1CCC[C@H]1C(=O)N1CCC[C@H]1C(=O)[O-].CSCC[C@H](NP(=O)(CCc1ccccc1)OCc1ccccc1)C(=O)N1CCC[C@H]1C(=O)N1CCC[C@H]1C(=O)[O-].[Ca+2] (some centres unmarked) [Example 55]
2. C[C@H](NP(=O)([O-])CCc1ccccc1)C(=O)N1CCC[C@H]1C(=O)N1CCC[C@H]1C(=O)[O-].[Na+].[Na+] [Example 28]

a:
1: 210; 2: 183

----------
Test system: spontaneously hypertensive rats
protocol: Antihypertensive activity: systolic blood pressure measured indirectly on conscious SHR after peroral dosing
Type: in vivo, rat
measurement.setup: SHR, 4 hours after 35 mg/kg peroral single dose
Protocol: The antihypertensive activity of part of the amino acid derivatives prepared above, was determined. […] As an instrument for measuring the blood pressure a Programmed Electro-Sphygmomanometer PE-300 (Narco Co., U.S.A.) was used, and the blood pressure was indirectly measured on conscious rats. […] An antihypertensive activity of part of the amino acid derivatives prepared above was determined. […] An antihypertensive activity of the product prepared above was determined.
Exercise: state measured Systolic Blood Pressure, 4 hrs after administration for each of the molecules provided.
State the value with its unit after it.

q: Reported Systolic Blood Pressure, 4 hrs after administration for C[C@H](NP(=O)(O)CCc1ccccc1)C(=O)N(CC(=O)N1CCC[C@H]1C(=O)[O-])C1Cc2ccccc2C1.C[C@H](NP(=O)(O)CCc1ccccc1)C(=O)N(CC(=O)N1CCC[C@H]1C(=O)[O-])C1Cc2ccccc2C1.[Na+].[Na+] : what is it?
a: 172 mm Hg

List the reported Systolic Blood Pressure, 4 hrs after administration of each molecule below.
1. C[C@H](NP(=O)(OCc1ccccc1)OCc1ccccc1)C(=O)N1CCC[C@H]1C(=O)O.NC(N)=NCCC[C@H](N)C(=O)O [*, reference compound]
2. N=C(N)NCCC[C@H](NP(=O)(Cc1ccccc1)Cc1ccccc1)C(=O)N1CCC[C@H]1C(=O)N1CCC[C@H]1C(=O)O
3. C[C@H](NP(=O)(CCc1ccccc1)OCc1ccccc1)C(=O)N1CCC[C@H]1C(=O)N1CCC[C@H]1C(=O)[O-].[Na+] (some centres unmarked)
4. C[C@H](NP(=O)(OCc1ccccc1)OCc1ccccc1)C(=O)N1CCC[C@H]1C(=O)N[C@@H](CCCNC(=N)N)C(=O)O

a:
["193 mm Hg", "167 mm Hg", "180 mm Hg", "162 mm Hg"]

----------
Test system: spontaneously hypertensive rats
protocol: Antihypertensive activity: systolic blood pressure measured indirectly on conscious SHR after peroral dosing
Type: in vivo, rat
measurement.setup: SHR, 4 hours after 35 mg/kg peroral single dose
Kindly supply the reported Systolic Blood Pressure, 4 hrs after administration values for the records listed here.
Answers are plain numbers, in mm Hg.

Some solved cases for reference:
q: Requested read-out: Systolic Blood Pressure, 4 hrs after administration. Entry: CSCC[C@H](NP(=O)(CCc1ccccc1)OCc1ccccc1)C(=O)N1CCC[C@H]1C(=O)N1CCC[C@H]1C(=O)O.NC(N)=NCCC[C@H](N)C(=O)O (some centres unmarked)
a: 158

q: Could you share which Systolic Blood Pressure, 4 hrs after administration value was measured for COC(=O)[C@@H]1CCCN1C(=O)[C@@H]1CCCN1C(=O)[C@H](C)NP(=O)([O-])CCc1ccccc1.[Na+] ?
a: 183

q: Quick one: Systolic Blood Pressure, 4 hrs after administration of C[C@H](NP(=O)(OCc1ccccc1)OCc1ccccc1)C(=O)N1CCC[C@H]1C(=O)N1CCC[C@H]1C(=O)[O-].[K+] ?
a: 160

q: Looking for the measured Systolic Blood Pressure, 4 hrs after administration of C[C@H](NP(=O)([O-])CCc1ccccc1)C(=O)N1CCC[C@H]1C(=O)N1CCC[C@H]1C(=O)[O-].[Na+].[Na+] , can you help?
a: 151

q: Which Systolic Blood Pressure, 4 hrs after administration value belongs to C[C@H](NP(=O)(OCc1ccccc1)OCc1ccccc1)C(=O)N1CCC[C@H]1C(=O)NCC(=O)O.N=C(N)NCCC[C@H](N)C(=O)O ?
a: 190

q: Any idea what its Systolic Blood Pressure, 4 hrs after administration is? The compound is C[C@H](NP(=O)(O)OCc1ccccc1)C(=O)N1CCC[C@H]1C(=O)N1CCC[C@H]1C(=O)O.C[C@H](NP(=O)(O)OCc1ccccc1)C(=O)N1CCC[C@H]1C(=O)N1CCC[C@H]1C(=O)O.N.N
a: 167

Go through the list and state Systolic Blood Pressure, 4 hrs after administration for each entry.
1. NCCCC[C@H](NP(=O)(O)CCc1ccccc1)C(=O)N1CCC[C@H]1C(=O)N1CCC[C@H]1C(=O)[O-].NCCCC[C@H](NP(=O)(O)CCc1ccccc1)C(=O)N1CCC[C@H]1C(=O)N1CCC[C@H]1C(=O)[O-].[Na+].[Na+]
2. CCOP(=O)(CCc1ccccc1)N[C@@H](CCCCN)C(=O)N1CCC[C@H]1C(=O)N1CCC[C@H]1C(=O)O.NC(N)=NCCC[C@H](N)C(=O)O (some centres unmarked)
3. C[C@H](NP(=O)(OCc1ccccc1)OCc1ccccc1)C(=O)N1CCC[C@H]1C(=O)N1CCC[C@H]1C(=O)O

a:
1. 177
2. 172
3. 188

Each compound below has a recorded value; state its Systolic Blood Pressure, 4 hrs after administration.
1. C[C@H](NP(=O)(CCc1ccccc1)OCc1ccccc1)C(=O)N(CC(=O)N1CCC[C@H]1C(=O)O)C1Cc2ccccc2C1.NC(N)=NCCC[C@H](N)C(=O)O (some centres unmarked)
2. COP(=O)(CCc1ccccc1)N[C@@H](CCSC)C(=O)N1CCC[C@H]1C(=O)N1CCC[C@H]1C(=O)O.NC(N)=NCCC[C@H](N)C(=O)O (some centres unmarked)

a:
1: 154; 2: 172

----------
Test system: spontaneously hypertensive rats
protocol: Antihypertensive activity: systolic blood pressure measured indirectly on conscious SHR after peroral dosing
Assay type: in vivo, rat
measurement.setup: SHR, 4 hours after 35 mg/kg peroral single dose
Experimental: The antihypertensive activity of part of the amino acid derivatives prepared above, was determined. […] As an instrument for measuring the blood pressure a Programmed Electro-Sphygmomanometer PE-300 (Narco Co., U.S.A.) was used, and the blood pressure was indirectly measured on conscious rats. […] An antihypertensive activity of part of the amino acid derivatives prepared above was determined. […] An antihypertensive activity of the product prepared above was determined.
measurement.kind: Systolic Blood Pressure, 4 hrs after administration (mm Hg)
Give bare numbers, in mm Hg.

Study these solved cases before continuing.
q: Param item = C[C@H](NP(=O)(CCc1ccccc1)OCc1ccccc1)C(=O)N1CCC[C@H]1C(=O)N1CCC[C@H]1C(=O)O.NC(N)=NCCC[C@H](N)C(=O)O (stereo partly drawn) ; retrieve measured Systolic Blood Pressure, 4 hrs after administration.
a: 152

q: For CCCCCP(=O)(O)N[C@@H](C)C(=O)N1CCC[C@H]1C(=O)N1CCC[C@H]1C(=O)[O-].CCCCCP(=O)(O)N[C@@H](C)C(=O)N1CCC[C@H]1C(=O)N1CCC[C@H]1C(=O)[O-].[Na+].[Na+] , what is its reported Systolic Blood Pressure, 4 hrs after administration?
a: 167

q: Would you mind telling me what Systolic Blood Pressure, 4 hrs after administration value was observed for CCOP(=O)(CCc1ccccc1)N[C@@H](C)C(=O)N1CCC[C@H]1C(=O)N1CCC[C@H]1C(=O)[O-].[Na+] (stereo partly drawn) ?
a: 171

Kindly give each listed record's Systolic Blood Pressure, 4 hrs after administration.
1. C[C@H](NP(=O)(OCc1ccccc1)OCc1ccccc1)C(=O)N1CCC[C@H]1C(=O)N[C@@H](Cc1ccccc1)C(=O)O.N=C(N)NCCC[C@H](N)C(=O)O
2. O=C(O)[C@@H]1CCCN1C(=O)[C@@H]1CCCN1C(=O)[C@H](Cc1ccccc1)NP(=O)(Cc1ccccc1)Cc1ccccc1
3. CSCC[C@H](NP(=O)(OCc1ccccc1)OCc1ccccc1)C(=O)N1CCC[C@H]1C(=O)N1CCC[C@H]1C(=O)O.N=C(N)NCCC[C@H](N)C(=O)O

a:
173
169
168
